Reference source: ChEMBL document CHEMBL4831524

Test: physchem
Settings: 1-octanol/phosphate buffered saline, pH 7.4
Consider the following compounds; for each one, report its logD.
Give bare numbers.

Here's what some known entries look like.
CS(=O)(=O)c1ccc2c(c1)CN(C(=O)CCC#N)C2C(=O)Nc1ccc(C(O)(C(F)(F)F)C(F)(F)F)cc1 (stereo not drawn)
2.3
CC(=O)N1Cc2cc(S(C)(=O)=O)ccc2[C@H]1C(=O)Nc1ccc(C(O)(C(F)(F)F)C(F)(F)F)cc1
2.4
CC(=O)N1Cc2cc(S(C)(=O)=O)ccc2[C@@H]1C(=O)Nc1ccc(C(O)(C(F)(F)F)C(F)(F)F)cc1
2.4

Provide logD values for the following items, in order.
1. CCS(=O)(=O)c1ccc(C(NC(=O)Cc2ccccn2)C(=O)Nc2ccc(C(O)(C(F)(F)F)C(F)(F)F)cc2)nc1 (stereo not drawn)
2. CCS(=O)(=O)c1ccc(C(Cc2nnco2)C(=O)Nc2ccc(C(O)(C(F)(F)F)C(F)(F)F)cc2)cc1 (stereo not drawn)
3. CS(=O)(=O)c1ccc2c(c1)CN(C(=O)CO)C2C(=O)Nc1ccc(C(O)(C(F)(F)F)C(F)(F)F)cc1 (stereo not drawn)

2.8
2.9
1.9

What does the data say about its logD? Entry: CNS(=O)(=O)c1ccc2c(c1)CN(C(=O)C1CCO1)C2C(=O)Nc1ccc(C(O)(C(F)(F)F)C(F)(F)F)cc1 (stereo not drawn)
2.6

* * *

Test: Half life in C57BL/6 mouse at 1 mg/kg, iv
Type: ADME, organism-based
Settings: in vivo
measuredMetric: half-life (h)
Numbers only, in h.

What does the data say about its half-life? Entry: CC(=O)N1Cc2cc(S(C)(=O)=O)ccc2[C@@H]1C(=O)Nc1ccc(C(O)(C(F)(F)F)C(F)(F)F)cc1
2.7

* * *

Test: Total plasma clearance in Han Wistar rat at 1 mg/kg, iv
Type: ADME, organism-based
measuredMetric: clearance
Returns: string containing the numeric result and its unit.

What does the data say about its clearance? Entry: CC(=O)N1Cc2cc(S(C)(=O)=O)ccc2[C@@H]1C(=O)Nc1ccc(C(O)(C(F)(F)F)C(F)(F)F)cc1
12.4 mL/min/kg

* * *

Assay: Intrinsic permeability of compound from apical to basolateral side in human Caco2 cells
Format: ADME, cell-based
Conditions: Caco-2
Consider the following molecules; for each one, report its Pm.
Answers are plain numbers.

Here's what some known entries look like.
CCS(=O)(=O)c1ccc(C(NC(=O)Cc2ccccc2)C(=O)Nc2ccc(C(O)(C(F)(F)F)C(F)(F)F)cc2)nc1 (centres undefined)
29
CCS(=O)(=O)c1ccc(C(NC(=O)Cc2nccs2)C(=O)Nc2ccc(C(O)(C(F)(F)F)C(F)(F)F)cc2)nc1 (centres undefined)
11
CCS(=O)(=O)c1ccc(C(NC(=O)CC2CC2)C(=O)Nc2ccc(C(O)(C(F)(F)F)C(F)(F)F)cc2)nc1 (centres undefined)
14.2

Please find the next molecule below.
What does the data say about its Pm? Entry: CCS(=O)(=O)c1ccc([C@@H](CC(=O)NC)C(=O)Nc2ccc(C(O)(C(F)(F)F)C(F)(F)F)cc2)cc1
3.2

* * *

Test: Renal clearance in Han Wistar rat at 0.5 mg/kg, iv
Assay type: ADME, organism-based, Kidney
Conditions: in vivo
measuredMetric: CL renal (mL/min/kg)
Numbers only, in mL/min/kg.

What does the data say about its CL renal? Entry: CC(=O)N1Cc2cc(S(C)(=O)=O)ccc2[C@@H]1C(=O)Nc1ccc(C(O)(C(F)(F)F)C(F)(F)F)cc1
2.9

* * *

Test: Volume of distribution at steady state in Han Wistar rat at 0.5 mg/kg, iv
Format: ADME, organism-based
Settings: in vivo, read-out: Vdss
measuredMetric: Vd

What does the data say about its Vd? Entry: CC(=O)N1Cc2cc(S(C)(=O)=O)ccc2[C@@H]1C(=O)Nc1ccc(C(O)(C(F)(F)F)C(F)(F)F)cc1
2.5 L/kg

* * *

Experiment: in vivo
Conditions: Han Wistar, rat, po, 1 mg/kg
measuredMetric: CL/F (L/h/kg)
Answers are plain numbers, in L/h/kg.

What does the data say about its CL/F? Entry: CC(=O)N1Cc2cc(S(C)(=O)=O)ccc2C1C(=O)Nc1ccc(C(O)(C(F)(F)F)C(F)(F)F)cc1 (racemic)
0.378

* * *

Assay: Fraction absorbed in C57BL/6 mouse at 2 mg/kg, po using amorphous form of sample
Format: ADME, organism-based
Settings: in vivo, read-out: Fabs
measuredMetric: Fa (%)
Give bare numbers, in %.

What does the data say about its Fa? Entry: CC(=O)N1Cc2cc(S(C)(=O)=O)ccc2[C@@H]1C(=O)Nc1ccc(C(O)(C(F)(F)F)C(F)(F)F)cc1
71

* * *

Assay: Half life in Han Wistar rat at 0.5 mg/kg, iv
Type: ADME, organism-based
Details: in vivo
measuredMetric: half-life (h)
Give bare numbers, in h.

What does the data say about its half-life? Entry: CC(=O)N1Cc2cc(S(C)(=O)=O)ccc2[C@@H]1C(=O)Nc1ccc(C(O)(C(F)(F)F)C(F)(F)F)cc1
3.3

* * *

Test: Oral bioavailability in Beagle dog at 10 mg/kg using crystaline form of sample
Type: ADME, organism-based, Canis lupus familiaris
Conditions: in vivo
measuredMetric: bioavailability (%)
Numbers only, in %.

What does the data say about its bioavailability? Entry: CC(=O)N1Cc2cc(S(C)(=O)=O)ccc2[C@@H]1C(=O)Nc1ccc(C(O)(C(F)(F)F)C(F)(F)F)cc1
50

* * *

Experiment: in vivo
Conditions: Han Wistar, rat, po, 1 mg/kg
measuredMetric: bioavailability (%)
Numbers only, in %.

What does the data say about its bioavailability? Entry: CC(=O)N1Cc2cc(S(C)(=O)=O)ccc2C1C(=O)Nc1ccc(C(O)(C(F)(F)F)C(F)(F)F)cc1 (racemic)
40

* * *

Assay: Half life in Beagle dog at 1 mg/kg, iv
Assay type: ADME, organism-based, Canis lupus familiaris
Conditions: in vivo
measuredMetric: half-life (h)
Answers are plain numbers, in h.

What does the data say about its half-life? Entry: CC(=O)N1Cc2cc(S(C)(=O)=O)ccc2[C@@H]1C(=O)Nc1ccc(C(O)(C(F)(F)F)C(F)(F)F)cc1
16.6

* * *

Assay: Plasma protein binding in dog assessed as unbound fraction by equilibrium dialysis
Type: ADME, cell-free, Canis lupus familiaris
measuredMetric: fraction unbound
One number for each entry.

What does the data say about its fraction unbound? Entry: CC(=O)N1Cc2cc(S(C)(=O)=O)ccc2[C@@H]1C(=O)Nc1ccc(C(O)(C(F)(F)F)C(F)(F)F)cc1
0.12

* * *

Test: in vitro
Settings: human, hepatocytes
measuredMetric: hepatocyte CLint

What does the data say about its hepatocyte CLint? Entry: CC(=O)N1Cc2cc(S(C)(=O)=O)ccc2C1C(=O)Nc1ccc(C(O)(C(F)(F)F)C(F)(F)F)cc1 (racemic)
< 1 µL/min/1e6 cells

* * *

Assay: Plasma protein binding in mouse assessed as unbound fraction by equilibrium dialysis
Type: ADME, cell-free
measuredMetric: fraction unbound

What does the data say about its fraction unbound? Entry: CC(=O)N1Cc2cc(S(C)(=O)=O)ccc2[C@@H]1C(=O)Nc1ccc(C(O)(C(F)(F)F)C(F)(F)F)cc1
0.21

* * *

Experiment: in vivo
Conditions: Han Wistar, rat, po, 1 mg/kg
measuredMetric: half-life (min)
One number for each entry, in min.

What does the data say about its half-life? Entry: CC(=O)N1Cc2cc(S(C)(=O)=O)ccc2C1C(=O)Nc1ccc(C(O)(C(F)(F)F)C(F)(F)F)cc1 (racemic)
294

* * *

Assay: Apparent permeability across apical to basolateral side in human Caco-2 cells
Format: ADME, cell-based
measuredMetric: Papp A→B (×10⁻⁶ cm/s)
Give bare numbers, in ×10⁻⁶ cm/s.

CCS(=O)(=O)c1ccc(C(CC(=O)N(C)C)C(=O)Nc2ccc(C(O)(C(F)(F)F)C(F)(F)F)cc2)cc1 (centres undefined)
1.4
CCS(=O)(=O)c1ccc(C(NC(=O)Cc2nccs2)C(=O)Nc2ccc(C(O)(C(F)(F)F)C(F)(F)F)cc2)nc1 (centres undefined)
2.5
CCS(=O)(=O)c1ccc([C@@H](CC(=O)NC)C(=O)Nc2ccc(C(O)(C(F)(F)F)C(F)(F)F)cc2)cc1
0.3

Please find the next compound below.
What does the data say about its Papp A→B? Entry: CCS(=O)(=O)c1ccc(C(NC(=O)CC2CC2)C(=O)Nc2ccc(C(O)(C(F)(F)F)C(F)(F)F)cc2)nc1 (centres undefined)
1.1

* * *

Test: Oral bioavailability in Beagle dog at 3 mg/kg using amorphous form of sample
Assay type: ADME, organism-based, Canis lupus familiaris
Settings: in vivo
measuredMetric: bioavailability (%)
Numbers only, in %.

What does the data say about its bioavailability? Entry: CC(=O)N1Cc2cc(S(C)(=O)=O)ccc2[C@@H]1C(=O)Nc1ccc(C(O)(C(F)(F)F)C(F)(F)F)cc1
97

* * *

Assay: Apparent permeability across apical to basolateral side in human Caco-2 cells
Format: ADME, cell-based
measuredMetric: Papp A→B (nm/s)
Give bare numbers, in nm/s.

Here's what some known entries look like.
CCS(=O)(=O)c1ccc(C(Cn2cccn2)C(=O)Nc2ccc(C(O)(C(F)(F)F)C(F)(F)F)cc2)cc1 (centres undefined)
26
CCS(=O)(=O)c1ccc(C(NC(C)=O)C(=O)Nc2ccc(C(O)(C(F)(F)F)C(F)(F)F)cc2)nc1 (centres undefined)
7
CCS(=O)(=O)c1ccc(C(CC(=O)NC)C(=O)Nc2ccc(C(O)(C(F)(F)F)C(F)(F)F)cc2)cc1 (centres undefined)
4

Please find the next compound below.
What does the data say about its Papp A→B? Entry: CCS(=O)(=O)c1ccc(C(NC(=O)Cc2ccccc2)C(=O)Nc2ccc(C(O)(C(F)(F)F)C(F)(F)F)cc2)nc1 (centres undefined)
9
